assay-comment: Pharmacokinetic experiments in rats (IV, oral suspension, oral solution)
Assay type: in vivo
test-parameters: male, rat, plasma, po, 20 mg/kg, Group 4, PO-Solution 20 mg/kg, individual animals, read-out: Cmax
property: Cmax (ng/mL)
Write the value in ng/mL as a bare number.

Request the reported Cmax associated with O=C(NNc1nc2cc(F)ccc2n2cccc12)c1cnccn1 [NVX-144, reference compound]
691

----------
assay-comment: Pharmacokinetic experiments in rats (IV, oral suspension, oral solution)
Type: in vivo
test-parameters: male, rat, plasma, oral, 20 mg/kg, Group 4, PO-Solution 20 mg/kg, 0.5 hr, Mean
property: concentration at 0.5 h (ng/mL)
Entry rule: numbers only, all in ng/mL.

So what's the measured concentration at 0.5 h for this one? O=C(NNc1nc2cc(F)ccc2n2cccc12)c1cnccn1 [NVX-144, reference compound]
709
